Each recorded value in this set is attributed to patent US20140024662A1.

Tested on: FADD-deficient Jurkat cells
Assay: necroptosis assay: FADD-deficient Jurkat cells treated with TNFα, cell viability
Assay type: cell-based, human
Details: effective concentration for half-maximum response; inhibition of necroptosis in FADD-deficient Jurkat cells treated with TNFα; read-out: EC50
What EC50 was measured for each of the following?
Number in nM, nothing else.

[Q] Look up EC50: COc1ccc(-n2c(SCC#N)nc3sc4c(c3c2=O)CCC4)cc1 [Compound 73]
[A] 450

[Q] Look up EC50: N#CCSc1nc2sc3c(c2c(=O)n1-c1ccc2c(c1)OCCO2)CCCC3 [Compound 134]
[A] 220

[Q] Look up EC50: Cc1sc2nc(SCC#N)n(-c3ccc(OC(F)(F)F)cc3)c(=O)c2c1C [Compound 156]
[A] 3700

[Q] Look up EC50: COc1ccc(-n2c(SC)nc3sc4c(c3c2=O)CCCC4)cc1 [Compound 6]
[A] 240

[Q] Look up EC50: COc1ccc(-n2c(SC)nc3sc4c(c3c2=O)CCCC4)cc1OC [Compound 58]
[A] 16700

[Q] Look up EC50: Cc1sc2nc(SCC#N)n(-c3ccc4c(c3)OCO4)c(=O)c2c1C [Compound 127]
[A] 1650

[Q] Look up EC50: N#CCSc1nc2sc3c(c2c(=O)n1-c1ccc2c(c1)OCCO2)CCC3 [Compound 133]
[A] 250

[Q] Look up EC50: COc1ccc(-n2c(SCC#N)nc3sc4c(c3c2=O)CCCC4)cc1OC [Compound 47]
[A] 5700

[Q] Look up EC50: N#CCCSc1nc2sc3c(c2c(=O)n1-c1ccc2c(c1)OCO2)CCCC3 [Compound 48]
[A] 890

[Q] Look up EC50: N#CCSc1nc2sc3ccccc3c2c(=O)n1-c1ccc2c(c1)OCO2 [Compound 146]
[A] 270

[Q] Look up EC50: CCc1sc2nc(SCC#N)n(-c3ccc(OC)cc3)c(=O)c2c1C [Compound 68]
[A] 5260

[Q] Look up EC50: COc1ccc(-n2c(SCC#N)nc3sc(C)c(C)c3c2=O)cc1 [Compound 67]
[A] 450

[Q] Look up EC50: COc1cccc(-n2c(SCC#N)nc3sc4c(c3c2=O)CCCC4)c1 [Compound 34]
[A] 1460

[Q] Look up EC50: CSc1nc2sc3c(c2c(=O)n1-c1ccc(C)c(C)c1)CCCC3 [Compound 55]
[A] 16700

[Q] Look up EC50: N#CCSc1nc2sc3c(c2c(=O)n1-c1cccc(Cl)c1)CCCC3 [Compound 40]
[A] 5100

[Q] Look up EC50: COc1ccc(-n2c(SC)nc3sc4ccccc4c3c2=O)cc1 [Compound 90]
[A] 240

[Q] Look up EC50: COc1ccc(-n2c(SCCC#N)nc3sc4c(c3c2=O)CCCC4)cc1 [Compound 24]
[A] 5280

[Q] Look up EC50: CCOc1ccc(-n2c(SCC#N)nc3sc(C)c(C)c3c2=O)cc1 [Compound 154]
[A] 7770

[Q] Look up EC50: CCc1c(C)sc2nc(SCC#N)n(-c3ccc(OC)cc3)c(=O)c12 [Compound 72]
[A] 1080

###

Test system: FADD-deficient Jurkat cells
Test: necroptosis assay: FADD-deficient Jurkat cells treated with TNFα, cell viability
Assay type: cell-based, human
Conditions: effective concentration for half-maximum response; inhibition of necroptosis in FADD-deficient Jurkat cells treated with TNFα; read-out: EC50
Strictly below 3000 nM in EC50: 1. Otherwise: 0.

[Q] Lab note: confirm whether the reported EC50 for this molecule is below 3000 nM, equality not counting. molecule: Cc1sc2nc(SCC#N)n(-c3ccc(F)cc3)c(=O)c2c1C [Compound 119]
[A] 0

[Q] Lab note: confirm whether the reported EC50 for this molecule is below 3000 nM, equality not counting. molecule: C#CCSc1nc2sc3c(c2c(=O)n1-c1ccc(OC)cc1)CCC3 [Compound 98]
[A] 1

[Q] Lab note: confirm whether the reported EC50 for this molecule is below 3000 nM, equality not counting. molecule: Cc1ccc(-n2c(SCC#N)nc3sc4c(c3c2=O)CCCC4)cc1 [Compound 38]
[A] 1

[Q] Lab note: confirm whether the reported EC50 for this molecule is below 3000 nM, equality not counting. molecule: N#CCSc1nc2sc3ccccc3c2c(=O)n1-c1ccc2c(c1)OCCO2 [Compound 135]
[A] 1

[Q] Lab note: confirm whether the reported EC50 for this molecule is below 3000 nM, equality not counting. molecule: CSc1nc2sc(C)c(C)c2c(=O)n1-c1ccc(F)cc1 [Compound 123]
[A] 1

[Q] Lab note: confirm whether the reported EC50 for this molecule is below 3000 nM, equality not counting. molecule: Cc1ccc(-n2c(SCC#N)nc3sc(C)c(C)c3c2=O)cc1C [Compound 137]
[A] 1

[Q] Lab note: confirm whether the reported EC50 for this molecule is below 3000 nM, equality not counting. molecule: N#CCSc1nc2sc3c(c2c(=O)n1-c1ccc(Cl)c(Cl)c1)CCCC3 [Compound 44]
[A] 0

[Q] Lab note: confirm whether the reported EC50 for this molecule is below 3000 nM, equality not counting. molecule: COc1ccccc1-n1c(SCC#N)nc2sc3c(c2c1=O)CCCC3 [Compound 33]
[A] 0

[Q] Lab note: confirm whether the reported EC50 for this molecule is below 3000 nM, equality not counting. molecule: CCOc1ccc(-n2c(SCC#N)nc3sc4c(c3c2=O)CCCC4)cc1 [Compound 35]
[A] 1

###

Tested on: FADD-deficient Jurkat cells
Assay: necroptosis assay: FADD-deficient Jurkat cells treated with TNFα, cell viability
Type: cell-based, human
Settings: max viability obtained in the presence of a compound; FADD-deficient Jurkat cells treated with TNFα
Reported Property: Max Prot

[Q] Look up Max Prot: CSc1nc2sc(C)c(C)c2c(=O)n1-c1ccc(F)cc1
[A] 69.2%

[Q] Look up Max Prot: COc1ccc(-n2c(SC)nc3sc4c(c3c2=O)CCCC4)cc1OC
[A] 54.5%

[Q] Look up Max Prot: N#CCSc1nc2sc3c(c2c(=O)n1-c1ccc(OC(F)(F)F)cc1)CCC3
[A] 70%

[Q] Look up Max Prot: COc1ccc(-n2c(SCC#N)nc3sc4ccccc4c3c2=O)cc1
[A] 83.3%

[Q] Look up Max Prot: CCc1c(C)sc2nc(SCC#N)n(-c3ccc(OC)cc3)c(=O)c12
[A] 100%

[Q] Look up Max Prot: CSc1nc2sc3c(c2c(=O)n1-c1ccc(F)cc1)CCCC3
[A] 61.2%

[Q] Look up Max Prot: CSc1ccc(-n2c(SCC#N)nc3sc4c(c3c2=O)CCCC4)cc1
[A] 70.0%

[Q] Look up Max Prot: CCc1sc2nc(SCC#N)n(-c3ccc(OC)cc3)c(=O)c2c1C
[A] 86.8%

[Q] Look up Max Prot: N#CCSc1nc2sc3c(c2c(=O)n1-c1ccc2c(c1)OCCO2)CCCC3
[A] 100%

[Q] Look up Max Prot: COc1cccc(-n2c(SCC#N)nc3sc4c(c3c2=O)CCCC4)c1
[A] 87.7%

[Q] Look up Max Prot: COc1ccc(-n2c(SC)nc3sc4c(c3c2=O)CCCC4)cc1
[A] 71%

[Q] Look up Max Prot: N#CCSc1nc2sc3c(c2c(=O)n1-c1ccc(F)cc1)CCC3
[A] 88.7%

[Q] Look up Max Prot: N#CCSc1nc2sc3c(c2c(=O)n1-c1ccc(F)cc1)CCCC3
[A] 85.1%

[Q] Look up Max Prot: COc1ccccc1-n1c(SCC#N)nc2sc3c(c2c1=O)CCCC3
[A] 51.2%

[Q] Look up Max Prot: Cc1sc2nc(SCC#N)n(-c3ccc4c(c3)OCO4)c(=O)c2c1C
[A] 100%

[Q] Look up Max Prot: C#CCSc1nc2sc3c(c2c(=O)n1-c1ccc(OC)cc1)CCCC3
[A] 80.7%

[Q] Look up Max Prot: COc1ccc(-n2c(SC)nc3sc4c(c3c2=O)CCC4)cc1
[A] 97.0%

[Q] Look up Max Prot: N#CCSc1nc2sc3c(c2c(=O)n1-c1cccc(Cl)c1)CCCC3
[A] 66.9%

[Q] Look up Max Prot: C#CCSc1nc2sc(C)c(C)c2c(=O)n1-c1ccc(OC)cc1
[A] 90.3%

[Q] Look up Max Prot: Cc1ccc(-n2c(SCC#N)nc3sc(C)c(C)c3c2=O)cc1C
[A] 90.7%

[Q] Look up Max Prot: N#CCCSc1nc2sc3c(c2c(=O)n1-c1ccc2c(c1)OCO2)CCCC3
[A] 100%

[Q] Look up Max Prot: CSc1nc2sc3c(c2c(=O)n1-c1ccc(C)c(C)c1)CCCC3
[A] 38.0%

[Q] Look up Max Prot: N#CCSc1nc2sc3c(c2c(=O)n1-c1ccc(Cl)cc1)CCCC3
[A] 55.0%

[Q] Look up Max Prot: CSc1nc2sc3c(c2c(=O)n1-c1ccc(F)cc1)CCC3
[A] 95%

[Q] Look up Max Prot: Cc1sc2nc(SCC#N)n(-c3ccc(OC(F)(F)F)cc3)c(=O)c2c1C
[A] 63%

[Q] Look up Max Prot: COc1ccc(-n2c(SCCO)nc3sc(C)c(C)c3c2=O)cc1
[A] 78%

[Q] Look up Max Prot: Cc1sc2nc(SCC#N)n(-c3ccc(F)cc3)c(=O)c2c1C
[A] 87.6%

[Q] Look up Max Prot: C#CCSc1nc2sc3c(c2c(=O)n1-c1ccc(OC)cc1)CCC3
[A] 63.4%

[Q] Look up Max Prot: COc1ccc(-n2c(SCC#N)nc3sc4c(c3c2=O)CCC4)cc1
[A] 100%

[Q] Look up Max Prot: COc1ccc(-n2c(SCCl)nc3sc4c(c3c2=O)CCCC4)cc1
[A] 85%

[Q] Look up Max Prot: COc1ccc(-n2c(SCCO)nc3sc4c(c3c2=O)CCC4)cc1
[A] 100%

[Q] Look up Max Prot: CSc1nc2sc(C)c(C)c2c(=O)n1-c1ccc2c(c1)OCO2
[A] 67.0%

[Q] Look up Max Prot: COc1ccc(-n2c(SCC#N)nc3sc(C)c(C)c3c2=O)cc1
[A] 100%

[Q] Look up Max Prot: COc1ccc(-n2c(SCCC#N)nc3sc4c(c3c2=O)CCCC4)cc1
[A] 70%

[Q] Look up Max Prot: CCc1c(C)sc2nc(SCC#N)n(-c3ccc4c(c3)OCO4)c(=O)c12
[A] 100%

[Q] Look up Max Prot: N#CCSc1nc2sc3c(c2c(=O)n1-c1ccc2c(c1)OCO2)CCC3
[A] 100%
